The reported numbers originate from paper PMC6272155.

# Target: human Lys-plasmin (Homo sapiens, UniProt P00747)
# Construct: purchased Haematologic Technologies (Essex Junction, VT, USA)
# Sequence (P00747 581-810 limits assumed): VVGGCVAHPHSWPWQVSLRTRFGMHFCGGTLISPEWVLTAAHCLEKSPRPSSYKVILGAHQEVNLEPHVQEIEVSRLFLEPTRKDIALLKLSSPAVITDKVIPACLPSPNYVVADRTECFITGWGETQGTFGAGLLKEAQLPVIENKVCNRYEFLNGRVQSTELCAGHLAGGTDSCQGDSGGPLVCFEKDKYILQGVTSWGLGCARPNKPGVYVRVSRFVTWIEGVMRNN
# Sequence (P00747 97-580 partner limits assumed): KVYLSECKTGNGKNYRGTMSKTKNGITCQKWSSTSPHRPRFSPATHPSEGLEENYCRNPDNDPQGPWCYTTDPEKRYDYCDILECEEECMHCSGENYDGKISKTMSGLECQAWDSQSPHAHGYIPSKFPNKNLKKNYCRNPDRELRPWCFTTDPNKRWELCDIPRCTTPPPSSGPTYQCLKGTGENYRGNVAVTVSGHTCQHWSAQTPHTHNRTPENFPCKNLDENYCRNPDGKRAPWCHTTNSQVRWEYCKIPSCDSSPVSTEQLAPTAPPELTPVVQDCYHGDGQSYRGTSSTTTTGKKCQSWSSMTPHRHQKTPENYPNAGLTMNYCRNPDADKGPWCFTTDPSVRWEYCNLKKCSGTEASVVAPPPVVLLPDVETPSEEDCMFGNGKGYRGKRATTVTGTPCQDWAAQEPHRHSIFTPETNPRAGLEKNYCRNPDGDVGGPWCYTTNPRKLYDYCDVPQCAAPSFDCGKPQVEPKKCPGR
# Procedure Text: Direct inhibition of human Lys-plasmin, chromogenic substrate (Spectrozyme PL) hydrolysis assay
# Type: biochemical
# Cond: logistic fit, pH 7.4, 37 °C
Give Yes when the value for HS (Hill slope) is at least 2. Give No when it is less.

Check if HS (Hill slope) >= 2 (inclusive). Item: O=c1c(OS(=O)(=O)O)c(-c2ccc(OS(=O)(=O)O)c(OS(=O)(=O)O)c2)oc2cc(OS(=O)(=O)O)cc(OCc3cn(CCCCCCCCCn4c(-c5ccc(OS(=O)(=O)O)cc5)nc5ccccc5c4=O)nn3)c12 [compound 33]
No

Check O=c1c2ccccc2nc(-c2ccc(OS(=O)(=O)O)cc2)n1CCCCCCCCCCCCn1cc(Cn2c(-c3ccc(OS(=O)(=O)O)cc3)nc3ccccc3c2=O)nn1 [compound 47] too.
No

Then O=c1c2ccccc2nc(-c2ccc(OS(=O)(=O)O)cc2)n1CCCCCCCCCCCn1cc(Cn2c(-c3ccc(OS(=O)(=O)O)cc3)nc3ccccc3c2=O)nn1 [compound 46] ?
Yes

Check O=c1c2ccccc2nc(-c2ccc(OS(=O)(=O)O)cc2)n1CCCCCCCCCn1cc(Cn2c(-c3ccc(OS(=O)(=O)O)cc3)nc3ccccc3c2=O)nn1 [compound 44] too.
No

Query O=c1c2ccccc2nc(-c2ccc(OS(=O)(=O)O)cc2)n1CCCCCCCCCCn1cc(Cn2c(-c3ccc(OS(=O)(=O)O)cc3)nc3ccccc3c2=O)nn1 [compound 45] next
No

###

# Target: human Lys-plasmin (Homo sapiens, UniProt P00747)
# Construct: purchased Haematologic Technologies (Essex Junction, VT, USA)
# Procedure Text: Direct inhibition of human Lys-plasmin, chromogenic substrate (Spectrozyme PL) hydrolysis assay
# Type: biochemical
# Cond: pH 7.4, read-out: ΔY% (efficacy, YM − Y0), logistic fit, pH 7.4, 37 °C
I'd appreciate it if you could supply Emax values for the items below.
Response body: numeric value in %, unit text excluded.

I am curious: what Emax value has been reported for "O=c1c(OS(=O)(=O)O)c(-c2ccc(OS(=O)(=O)O)c(OS(=O)(=O)O)c2)oc2cc(OS(=O)(=O)O)cc(OCc3cn(CCCCCCCCCn4c(-c5ccc(OS(=O)(=O)O)cc5)nc5ccccc5c4=O)nn3)c12" ?
89

Please answer likewise for "O=c1c(OS(=O)(=O)O)c(-c2ccc(OS(=O)(=O)O)c(OS(=O)(=O)O)c2)oc2cc(OS(=O)(=O)O)cc(OCc3cn(CCCCCCCn4c(-c5ccc(OS(=O)(=O)O)cc5)nc5ccccc5c4=O)nn3)c12"
87

Likewise for "O=c1c(OS(=O)(=O)O)c(-c2ccc(OS(=O)(=O)O)c(OS(=O)(=O)O)c2)oc2cc(OS(=O)(=O)O)cc(OCc3cn(CCCCCCCCCCn4c(-c5ccc(OS(=O)(=O)O)cc5)nc5ccccc5c4=O)nn3)c12" ?
83

Lookup "O=c1c(OS(=O)(=O)O)c(-c2ccc(OS(=O)(=O)O)c(OS(=O)(=O)O)c2)oc2cc(OS(=O)(=O)O)cc(OCc3cn(CCCCCCCCn4c(-c5ccc(OS(=O)(=O)O)cc5)nc5ccccc5c4=O)nn3)c12"
105
